Source listed as patent US20260158177A1.

Molecular target: human granzyme B (Homo sapiens, UniProt P10144)
Sequence (P10144 21-247): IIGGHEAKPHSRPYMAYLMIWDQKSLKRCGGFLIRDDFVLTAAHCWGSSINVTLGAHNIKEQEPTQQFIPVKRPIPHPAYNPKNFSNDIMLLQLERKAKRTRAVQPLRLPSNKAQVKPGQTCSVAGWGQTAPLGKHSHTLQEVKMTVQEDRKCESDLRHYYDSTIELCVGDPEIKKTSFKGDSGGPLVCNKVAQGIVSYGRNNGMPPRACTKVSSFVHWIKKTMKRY
Numbered stars: 1 amine (or outer) side, 2 acyl side, 3 side chain; on linkers, the order of the positions; unused ones are H or OH. Square brackets hold non-standard residues; d marks the D form. Peptide text beside a SMILES is read from it. * marks the point of attachment. NOTA(AlF) = O=C1CN2CCN(CCN(CC(=O)*)CC2)CC(=O)[O][Al]([F])[O]1; Haic = O=C1[C@@H](N[*:1])CCc2cccc3c2N1[C@H](C(=O)[*:2])C3; NH(5-HO-2-oxo-oxolan-4-yl) = O=C1CC(N*)C(O)O1; X1 = O=C(CN1CCN([*:1])CC1)[*:2]
readout: pIC50
pIC50 is defined as minus the log10 of a concentration measured in mol/L.

Example entries and their recorded answers appear below.
1) CC[C@H](C)[C@H](NC(=O)COCCOCCNC(=O)COCCOCCNC(=O)[C@@H](CCC(=O)O)NC(=O)CN1CCN(C(=O)CN2CCN3CCN(CC2)CC(=O)[O][Al]([F])[O]C(=O)C3)CC1)C(=O)N[C@H]1CCc2cccc3c2N(C1=O)[C@H](C(=O)NC1CC(=O)OC1O)C3 (some centres unmarked) [Compound 11-Al]: 8.62
2) CC[C@H](C)[C@H](NC(=O)CCNC(=O)CN(CC(=O)O)C(=O)CCNC(=O)CN1CCC(CN2CCN3CCN(CC2)CC(=O)[O][Al]([F])[O]C(=O)C3)CC1)C(=O)N[C@H]1CCc2cccc3c2N(C1=O)[C@H](C(=O)NC1CC(=O)OC1O)C3 (some centres unmarked) [Compound 3-Al]: 8.33
3) CC[C@H](C)[C@H](NC(=O)CCNC(=O)CC[C@H](NC(=O)CN1CCC(CN2CCN3CCN(CC2)CC(=O)[O][Al]([F])[O]C(=O)C3)CC1)C(=O)O)C(=O)N[C@H]1CCc2cccc3c2N(C1=O)[C@H](C(=O)NC1CC(=O)OC1O)C3 (some centres unmarked) [Compound 6-Al]: 8.35
4) CC[C@H](C)[C@H](NC(=O)CC[C@H](NC(=O)CN1CCN(C(=O)CN2CCN3CCN(CC2)CC(=O)[O][Al]([F])[O]C(=O)C3)CC1)C(=O)O)C(=O)N[C@H]1CCc2cccc3c2N(C1=O)[C@H](C(=O)NC1CC(=O)OC1O)C3 (some centres unmarked) [Compound 17-Al]: 8.57
5) CC[C@H](C)[C@H](NC(=O)CNC(=O)CNC(=O)[C@H](CCC(=O)O)NC(=O)CN1CCN(C(=O)CN2CCN3CCN(CC2)CC(=O)[O][Al]([F])[O]C(=O)C3)CC1)C(=O)N[C@H]1CCc2cccc3c2N(C1=O)[C@H](C(=O)NC1CC(=O)OC1O)C3 (some centres unmarked) [Compound 8-Al] ({NOTA(AlF)}-[X1]EGGI[Haic]-{NH(5-HO-2-oxo-oxolan-4-yl)}): 8.19

Please look at CC[C@H](C)[C@H](NC(=O)CCNC(=O)CCNC(=O)[C@@H](CCC(=O)O)NC(=O)CN1CCN(C(=O)CN2CCN3CCN(CC2)CC(=O)[O][Al]([F])[O]C(=O)C3)CC1)C(=O)N[C@H]1CCc2cccc3c2N(C1=O)[C@H](C(=O)NC1CC(=O)OC1O)C3 (some centres unmarked) [Compound 12-Al] and tell me its recorded pIC50 on human granzyme B (Homo sapiens, UniProt P10144). 8.38

Please look at CC[C@H](C)[C@H](NC(=O)COCCNC(=O)[C@@H](CCC(=O)O)NC(=O)[C@@H](CCC(=O)O)NC(=O)CN1CCC(CN2CCN3CCN(CC2)CC(=O)[O][Al]([F])[O]C(=O)C3)CC1)C(=O)N[C@H]1CCc2cccc3c2N(C1=O)[C@H](C(=O)NC1CC(=O)OC1O)C3 (some centres unmarked) [Compound 4-Al] and tell me its recorded pIC50 on human granzyme B (Homo sapiens, UniProt P10144). 8.55

Please look at CC[C@H](C)[C@H](NC(=O)CCNC(=O)[C@@H](CCC(=O)O)NC(=O)CCNC(=O)CN1CCC(CN2CCN3CCN(CC2)CC(=O)[O][Al]([F])[O]C(=O)C3)CC1)C(=O)N[C@H]1CCc2cccc3c2N(C1=O)[C@H](C(=O)NC1CC(=O)OC1O)C3 (some centres unmarked) [Compound 7-Al] and tell me its recorded pIC50 on human granzyme B (Homo sapiens, UniProt P10144). 8.17

Please look at CC[C@H](C)[C@H](NC(=O)CCNC(=O)CCNC(=O)CN(CC(=O)O)C(=O)CN1CCN(C(=O)CN2CCN3CCN(CC2)CC(=O)[O][Al]([F])[O]C(=O)C3)CC1)C(=O)N[C@H]1CCc2cccc3c2N(C1=O)[C@H](C(=O)NC1CC(=O)OC1O)C3 (some centres unmarked) [Compound 13-Al] and tell me its recorded pIC50 on human granzyme B (Homo sapiens, UniProt P10144). 8.38
